Every entry's value here was drawn from patent US20120178666A1.

EXPERIMENTAL DETAILS: Prodrug stability in simulated gastric fluid (USP)
ASSAY CONDITIONS: 37° C.
QUANTITY KIND: % prodrug remaining following incubation for: 1 h in simulated gastric fluid pH 1.1 (%)

CNCC(=O)N[C@@H](COC(=O)NC(=N)NC(=O)Cc1c(Cl)cccc1Cl)C(=O)O [Compound 61] | 92
CNCC(=O)N[C@@H](CCC(=O)NC(=N)NC(=O)Cc1c(Cl)cccc1Cl)C(=O)O [Compound 7] | 79
CC(C)[C@@H](N)C(=O)NCCC(=O)NC(=N)NC(=O)Cc1c(Cl)cccc1Cl [Compound 11, Guanfacine β-Alanine-(R)-Valine Amide] | 79

a: CC(=O)N[C@@H](COC(=O)NC(=N)NC(=O)Cc1c(Cl)cccc1Cl)C(=O)O [Compound 15, Acetyl-(S)-Serine (Guanfacine) Carbamate]
b: O=C(O)CC[C@@H]1N=C(NC(=O)Cc2c(Cl)cccc2Cl)NC1=O [Compound 37, Guanfacine-(S)-Glutamic Cyclic adduct]
Returns: the label, a or b , whose recorded % prodrug remaining following incubation for: 1 h in simulated gastric fluid pH 1.1 is the lower number. Answer format: the label of the selected item.
b

* * *

EXPERIMENTAL DETAILS: Prodrug stability in simulated gastric fluid (USP)
ASSAY CONDITIONS: 37° C.
QUANTITY KIND: % prodrug remaining following incubation for: 1 h in simulated gastric fluid pH 1.1 (%)

CSCC[C@@H](N)C(=O)N[C@@H](CCC(=O)NC(=N)NC(=O)Cc1c(Cl)cccc1Cl)C(=O)O | 75
CC(C)[C@@H](NC(=O)COC(=O)NC(=N)NC(=O)Cc1c(Cl)cccc1Cl)C(=O)O | 77
N=C(NC(=O)CCNC(=O)[C@@H]1CCC(=O)N1)NC(=O)Cc1c(Cl)cccc1Cl | 82
CC(C)[C@H](N)C(=O)N[C@H](C(=O)O)[C@@H](C)OC(=O)NC(=N)NC(=O)Cc1c(Cl)cccc1Cl | 79

* * *

EXPERIMENTAL DETAILS: Prodrug stability in simulated intestinal fluid (USP)
ASSAY CONDITIONS: 37° C.
QUANTITY KIND: % prodrug remaining following incubation for: 2 h in simulated intestinal fluid pH 6.8 (%)

CC(C)[C@H](N)C(=O)N[C@@H](COC(=O)NC(=N)NC(=O)Cc1c(Cl)cccc1Cl)C(=O)O [Compound 17] | 78
N=C(NC(=O)Cc1c(Cl)cccc1Cl)NC(=O)NC(C(=O)O)c1ccccc1 (stereo not shown) [Compound 8, Guanfacine Phenylglycine Urea] | 100
CC(C)[C@H](N)C(=O)NCCC(=O)NC(=N)NC(=O)Cc1c(Cl)cccc1Cl [Compound 2] | 89
CNCC(=O)N[C@@H](CCC(=O)NC(=N)NC(=O)Cc1c(Cl)cccc1Cl)C(=O)O [Compound 7] | 66
N=C(NC(=O)Cc1c(Cl)cccc1Cl)NC(=O)OCCNC(=O)CC[C@H](N)C(=O)O [Compound 58] | 99
O=C(O)CC1N=C(NC(=O)Cc2c(Cl)cccc2Cl)NC1=O (stereo not shown) [Compound 4, Guanfacine fumaryl Cyclic adduct] | 84
N=C(NC(=O)Cc1c(Cl)cccc1Cl)NC(=O)OC[C@H](NC(=O)CCN)C(=O)O [Compound 64] | 93

* * *

EXPERIMENTAL DETAILS: Prodrug stability in simulated intestinal fluid (USP)
ASSAY CONDITIONS: 37° C.
QUANTITY KIND: % prodrug remaining following incubation for: 2 h in simulated intestinal fluid pH 6.8 (%)

Take a look at these entries with their results.
N=C(NC(=O)CC[C@H](NC(=O)[C@@H]1CCC(=O)N1)C(=O)O)NC(=O)Cc1c(Cl)cccc1Cl | 98
CC(C)[C@@H](N)C(=O)N[C@@H](CCC(=O)NC(=N)NC(=O)Cc1c(Cl)cccc1Cl)C(=O)O | 89
N=C(NC(=O)CC[C@H](NC(=O)[C@H](N)CCCCN)C(=O)O)NC(=O)Cc1c(Cl)cccc1Cl | 85
N=C(NC(=O)CC[C@H](NC(=O)c1ccc(C(=O)O)cc1)C(=O)O)NC(=O)Cc1c(Cl)cccc1Cl | 97
CSCC[C@@H](N)C(=O)N[C@@H](CCC(=O)NC(=N)NC(=O)Cc1c(Cl)cccc1Cl)C(=O)O | 85
CCC(C)[C@@H](N)C(=O)NCCCC(=O)NC(=N)NC(=O)Cc1c(Cl)cccc1Cl (stereo partly drawn) [Compound 50, Guanfacine (GABA-(R)-Isoleucine) Amide] | 81

1: O=C1CCN=C(NC(=O)Cc2c(Cl)cccc2Cl)N1
2: CC(C)[C@@H](NC(=O)COC(=O)NC(=N)NC(=O)Cc1c(Cl)cccc1Cl)C(=O)O
Returns: the label, 1 or 2 , whose recorded % prodrug remaining following incubation for: 2 h in simulated intestinal fluid pH 6.8 is the lower number. Answer format: the label of the selected item.
1
(1: 91%, 2: 160%)
